- System name: Nonstructural protein 3 (Zika virus) (UniProt A0A024AXB9)
- Sequence (A0A024AXB9 as listed by the source): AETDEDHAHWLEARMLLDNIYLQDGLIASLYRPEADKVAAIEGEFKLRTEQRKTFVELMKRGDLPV
- Test protocol: Competitive inhibition of C-terminal His6-tagged linked Zika virus NS2B-NS3 protease domain expressed in Escherichia coli Bl21(DE3) using Bz-Nle-Lys-Lys-Arg-AMC as substrate after 30 mins by Cornish-Bowden plot analysis
Calls of active or inactive are those of the source. The rule behind the calls is not given here. Positions of bridges follow the written chain, without caps; N, C: chain ends. Non-standard residues stand in square brackets, D forms with d. Residues, ends and D or L forms follow the SMILES beside them. NMeY = CN[C@@H](Cc1ccc(O)cc1)C(=O)O; NMeF = CN[C@@H](Cc1ccccc1)C(=O)O; NMeS = CN[C@@H](CO)C(=O)O; Sar = CNCC(=O)O
Attribute measured: inhibition

[[record]]
molecule = "CC(C)C[C@@H]1NC(=O)[C@H]([C@@H](C)O)NC(=O)[C@H](Cc2ccc(O)cc2)NC(=O)CSC[C@@H](C(N)=O)NC(=O)[C@H](Cc2ccccc2)NC(=O)[C@H](Cc2ccccc2)NC(=O)[C@H]([C@@H](C)O)NC(=O)CN(C)C(=O)[C@H](CC(N)=O)NC(=O)[C@H](Cc2cnc[nH]2)NC(=O)[C@H](Cc2ccccc2)NC(=O)[C@@H]2CCCN2C1=O ({CH2CO}-YTLPFHN[Sar]TFFC-NH2; thioether N-12)"
attribute_measured = "inhibition"
measured_value = "inactive"

[[record]]
molecule = "COc1ccc(C[C@H]2C(=O)N[C@@H](CCCCN)C(=O)N(C)[C@@H](Cc3ccccc3)C(=O)N[C@@H](CCCCN)C(=O)N(C)[C@@H](CO)C(=O)N(C)[C@@H](Cc3ccc(OC)cc3)C(=O)N[C@@H](CCCCN)C(=O)N(C)[C@@H](Cc3ccc(OC)cc3)C(=O)N(C)[C@@H](Cc3ccc(OC)cc3)C(=O)N[C@@H](CCCCN)C(=O)N[C@H](C(N)=O)CSCC(=O)N[C@@H](Cc3ccc(O)cc3)C(=O)N2C)cc1 ({CH2CO}-Y[NMeY](Me)K[NMeF]K[NMeS][NMeY](Me)K[NMeY](Me)[NMeY](Me)KC-NH2; thioether N-12)"
attribute_measured = "inhibition"
measured_value = "inactive"

[[record]]
molecule = "CC[C@H](C)[C@@H]1NC(=O)[C@H](C)NC(=O)[C@@H](Cc2ccc(O)cc2)NC(=O)CSC[C@@H](C(N)=O)NC(=O)[C@H](CC(N)=O)NC(=O)[C@H](CC(C)C)N(C)C(=O)[C@H](Cc2ccc(O)cc2)NC(=O)[C@H](CCCCN)NC(=O)[C@H](CC(N)=O)NC(=O)[C@H](Cc2ccc(O)cc2)NC(=O)[C@H](Cc2ccc(OC)cc2)N(C)C(=O)[C@H]([C@@H](C)CC)NC1=O"
attribute_measured = "inhibition"
measured_value = "inactive"


###

- System name: Nonstructural protein 3 (Zika virus)
- Sequence (A0A024AXB9 whole entry, the tested form may be a part): as the sequence (A0A024AXB9 as listed by the source) above
- Test protocol: Inhibition of C-terminal His6-tagged linked Zika virus NS2B-NS3 protease domain expressed in Escherichia coli Bl21(DE3) using Bz-Nle-Lys-Lys-Arg-AMC as substrate after 30 mins by fluorophotometric method
Positions of bridges follow the written chain, without caps; N, C: chain ends. Non-standard residues stand in square brackets, D forms with d. Residues, ends and D or L forms follow the SMILES beside them. NMeY = CN[C@@H](Cc1ccc(O)cc1)C(=O)O; NMeF = CN[C@@H](Cc1ccccc1)C(=O)O; NMeS = CN[C@@H](CO)C(=O)O
Attribute measured: IC50 (nM)
Answers are plain numbers, in nM.

Prompt: Give measured IC50 for COc1ccc(C[C@H]2C(=O)N[C@@H](CCCCN)C(=O)N(C)[C@@H](Cc3ccccc3)C(=O)N[C@@H](CCCCN)C(=O)N(C)[C@@H](CO)C(=O)N(C)[C@@H](Cc3ccc(OC)cc3)C(=O)N[C@@H](CCCCN)C(=O)N(C)[C@@H](Cc3ccc(OC)cc3)C(=O)N(C)[C@@H](Cc3ccc(OC)cc3)C(=O)N[C@@H](CCCCN)C(=O)N[C@H](C(N)=O)CSCC(=O)N[C@@H](Cc3ccc(O)cc3)C(=O)N2C)cc1 ({CH2CO}-Y[NMeY](Me)K[NMeF]K[NMeS][NMeY](Me)K[NMeY](Me)[NMeY](Me)KC-NH2; thioether N-12) (Nonstructural protein 3 (Zika virus)).
Completion: 620
